Assay: Ratio of drug level in seminal plasma to blood plasma in human at 100 mg administered every 4 hrs by UPLC-MS/MS analysis
Type: ADME, cell-free
Details: male
endpoint: Kp at 4 h

input smiles | endpoint | measured result
O=C1Nc2c(O)cc(Cl)cc2[C@@](C#CC2CC2)(C(F)(F)F)O1 | Kp at 4 h | 145

====

Assay: Seminal plasma concentration in human treated with 100 mg of efavirenz administered every 4 hrs by UPLC-MS/MS analysis
Assay type: ADME, cell-free
Conditions: male
# maps each entry to its concentration at 4 h

input smiles | concentration at 4 h, ng/mL
O=C1Nc2c(O)cc(Cl)cc2[C@@](C#CC2(O)CC2)(C(F)(F)F)O1 | 5.43
O=C1Nc2c(O)cc(Cl)cc2[C@@](C#CC2CC2)(C(F)(F)F)O1 | 358
O=C1Nc2cc(O)c(Cl)cc2[C@@](C#CC2CC2)(C(F)(F)F)O1 | 10.2

====

Experiment: Drug level in human cerebrospinal fluid treated with 100 mg of efavirenz administered […] by UPLC-MS/MS analysis
Assay type: ADME, tissue-based
Details: read-out: Drug uptake

input smiles | u | concentration
O=C1Nc2c(O)cc(Cl)cc2[C@@](C#CC2(O)CC2)(C(F)(F)F)O1 | ng/mL | 0.375
O=C1Nc2c(O)cc(Cl)cc2[C@@](C#CC2CC2)(C(F)(F)F)O1 | ng/mL | 3.37

====

Experiment: Blood plasma protein binding in human at 100 mg administered every 4 hrs by ultrafiltration method
Format: ADME, cell-free
Conditions: read-out: PPB (converted)

compound | fraction unbound at 4 h
O=C1Nc2ccc(Cl)cc2[C@@](C#CC2CC2)(C(F)(F)F)O1 [EFAVIRENZ] | 0.0018

====

Experiment: Ratio of drug level in seminal plasma to blood plasma in human treated with 100 mg of efavirenz administered every 4 hrs by UPLC-MS/MS analysis
Type: ADME, cell-free
Details: male
# maps each entry to its Kp at 4 h
endpoint: Kp at 4 h

input smiles | endpoint | measured result
O=C1Nc2c(O)cc(Cl)cc2[C@@](C#CC2(O)CC2)(C(F)(F)F)O1 | Kp at 4 h | 209
O=C1Nc2cc(O)c(Cl)cc2[C@@](C#CC2CC2)(C(F)(F)F)O1 | Kp at 4 h | 188

====

Assay: Seminal plasma protein binding in human treated with 100 mg of efavirenz administered every 4 hrs by ultrafiltration method
Assay type: ADME, cell-free
Conditions: male, read-out: PPB (converted)

input smiles | fraction unbound at 4 h
O=C1Nc2cc(O)c(Cl)cc2[C@@](C#CC2CC2)(C(F)(F)F)O1 | 0.619
O=C1Nc2c(O)cc(Cl)cc2[C@@](C#CC2(O)CC2)(C(F)(F)F)O1 | 0.846
O=C1Nc2c(O)cc(Cl)cc2[C@@](C#CC2CC2)(C(F)(F)F)O1 | 0.038

====

System: Plasma
Experiment: Drug metabolism in human seminal plasma assessed as retention time of dihydroxylated metabolites treated with 100 mg of efavirenz administered every 4 hrs by UPLC-MS/MS analysis
Type: ADME, cell-free

input smiles | Retention time
O=C1Nc2c(O)cc(Cl)cc2[C@@](C#CC2(O)CC2)(C(F)(F)F)O1 | 1.56 min

Where these numbers come from: ChEMBL document CHEMBL3525980
